# target-of-assay: T1, human IL-33 (R&D Systems, #3625-IL-010/CF) (human, UniProt O95760 112-270)
# T1 construct: Commercial recombinant protein; also called hIL-33; interleukin-33
# T1 sequence (looked up): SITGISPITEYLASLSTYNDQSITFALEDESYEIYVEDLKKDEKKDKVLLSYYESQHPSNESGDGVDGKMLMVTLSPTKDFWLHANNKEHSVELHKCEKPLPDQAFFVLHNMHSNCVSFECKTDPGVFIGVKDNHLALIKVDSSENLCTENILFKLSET
# protocol-description: SPR 25C, pH6.0 chase, mAb captured
# Protocol: Equilibrium dissociation constants (KD values) for IL-33 binding to purified anti-IL-33 monoclonal antibodies were determined using a real-time surface plasmon resonance biosensor using a Biacore 4000 instrument. […] Association of either hIL-33 or MfIL-33-6His to the captured monoclonal antibody was monitored for 4 minutes and their dissociation in ABS-ET running buffer was monitored for 10 minutes. […]
measure-name: koff (s⁻¹)
All answers are understood in s⁻¹, so give the number only.

Here's what some known entries look like.
H1M9566N (antibody, mouse IgG1, V domains shown, Human variable domains, mouse IgG1 Fc (H1M)) VH: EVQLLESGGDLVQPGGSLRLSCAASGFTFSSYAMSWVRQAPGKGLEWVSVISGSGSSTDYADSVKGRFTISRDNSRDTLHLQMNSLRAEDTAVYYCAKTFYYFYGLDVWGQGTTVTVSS VL: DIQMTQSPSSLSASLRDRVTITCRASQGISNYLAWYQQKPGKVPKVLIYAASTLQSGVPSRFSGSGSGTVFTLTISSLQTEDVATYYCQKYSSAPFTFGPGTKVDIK; 0.00011
H4H9629P (antibody, human IgG4, V domains shown, Human IgG4 Fc (H4H)) VH: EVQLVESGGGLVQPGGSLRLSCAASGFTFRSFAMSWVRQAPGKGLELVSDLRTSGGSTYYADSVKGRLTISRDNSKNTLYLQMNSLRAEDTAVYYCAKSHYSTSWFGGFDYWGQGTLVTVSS VL: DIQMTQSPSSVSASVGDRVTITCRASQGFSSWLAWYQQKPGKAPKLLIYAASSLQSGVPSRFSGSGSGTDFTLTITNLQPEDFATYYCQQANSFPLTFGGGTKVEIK; 0.00128
H4H9663P (antibody, human IgG4, V domains shown, Human IgG4 Fc (H4H)) VH: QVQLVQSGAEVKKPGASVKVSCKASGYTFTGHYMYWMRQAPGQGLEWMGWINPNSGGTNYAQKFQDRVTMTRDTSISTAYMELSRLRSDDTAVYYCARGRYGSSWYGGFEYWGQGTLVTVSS VL: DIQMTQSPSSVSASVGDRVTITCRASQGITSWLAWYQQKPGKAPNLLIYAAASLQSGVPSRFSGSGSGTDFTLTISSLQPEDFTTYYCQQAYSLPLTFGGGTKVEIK; 0.0011

Shift focus to the following entry.
// koff lookup, binder = H1M9559N (antibody, mouse IgG1, V domains shown, Human variable domains, mouse IgG1 Fc (H1M)) VH: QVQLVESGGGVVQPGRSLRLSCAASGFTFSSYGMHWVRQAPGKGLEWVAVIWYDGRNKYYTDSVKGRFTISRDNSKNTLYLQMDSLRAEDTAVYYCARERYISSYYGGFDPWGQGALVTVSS VL: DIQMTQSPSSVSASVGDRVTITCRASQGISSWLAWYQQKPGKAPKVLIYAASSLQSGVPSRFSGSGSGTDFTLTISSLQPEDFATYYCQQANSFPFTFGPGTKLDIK , result: 0.000187

Data provenance: patent US20160362487A1
